# growth annotations
Tested on: UACC-257 melanoma
Experiment: NCI-60 one-dose screen, 48 h (100 = growth as untreated, 0 = no growth, -100 = all killed)
Conditions: 10 µM
Compounds without any hit were thinned out: in the full panel of roughly 83,000, 20% have a hit. Calls of active or inactive are those of the source. Rule for the calls: active = growth percent below 10; inactive = the rest.

Consider the reported growth for these compounds:
COc1cc(-c2nn(-c3cccc(NC(=O)NCCNC(=O)c4ccccc4)c3)cc2-c2ccncc2)ccc1Cl
17.1% (inactive)
COc1ccc2nc3cc(Cl)ccc3c(N)c2c1
-81.2% (active)
CCOC(=O)c1cc(C(=O)c2ccc(F)cc2F)n2ccccc12
93.4% (inactive)
CCc1ccc(C2=NN(c3ccc(S(C)(=O)=O)cc3)C(=O)CC2)cc1
59.1% (inactive)
COc1ccc(-c2cc(-c3ccccc3)nc(SCCCC(=O)NO)n2)cc1
-3.3% (active)
CC(=O)OC1CC2C(C)(C)CCC[C@]2(C)C2=C1C(O)=C(C(C)C)C(=O)C2=O (some centres undefined)
-12% (active)
NC(CSC(c1ccccc1)(c1ccccc1)c1cccc2ccccc12)C(=O)O (centres undefined)
103% (inactive)
O=C(N/N=C/c1ccc(Cl)cc1)c1ccccc1Nc1cccc(C(F)(F)F)c1
96.9% (inactive)

Just so you know, measured growth for Cc1cc(C(C#N)c2ccc(Cl)cc2)c(Cl)cc1NC(=O)c1cc(I)cc(I)c1O (centres undefined) came out at 71.3% (inactive)

====

Tested on: COLO 205 colon
Test: NCI-60 one-dose screen, 48 h
Conditions: 10 µM
Procedure: Cells are grown in 96 well plates and exposed to the test compound for 48 hours. Compounds are tested at a single concentration, which is 10^-5 M for most compounds. The reported endpoint is percent growth (GI% or GIPRCNT), where numbers from 0 - 100% represent growth inhibition, and numbers from -100% - 0 represent cell death. For example, a value of 40 represents 60% growth inhibition. A value of 0 means no net growth occurred over the course of the experiment. […]
About 83,000 compounds went through this panel and 20% of them were active in at least one assay; those are over-represented in the sample as a whole. The source made the active and inactive calls. Rule for the calls: active = growth percent below 10; inactive = the rest.
Thanks in advance; please answer with one of these: active, inactive

O=C(CCc1nnc2sc(-c3cc(O)c(O)c(O)c3)nn12)c1nc2ccccc2[nH]1
inactive
CCC(CC)n1c(C)cc(=O)n1C(CC)CC
inactive

Query: Tell me the recorded outcome of this test for COC(=O)C1(O)NC(=C(C#N)C#N)C(C#N)=C1C(=O)c1ccc(OC)c(OC)c1 (stereo unspecified) .
Response: inactive

Query: Tell me the recorded outcome of this test for O=C1c2ccccc2C(=O)N1CCCCNc1ccccc1 .
Response: inactive

Query: Tell me the recorded outcome of this test for CC1=CC2C(C(O)CC3(C)C2CC(C)C32OCOC23COCO3)C2(C)C/C(=C/O)C(=O)C=C12 (stereo unspecified) .
Response: active

Query: Tell me the recorded outcome of this test for COc1ccc(NC(=O)C2CC3C=CC2C3)c([N+](=O)[O-])c1 (stereo unspecified) .
Response: inactive

Query: Tell me the recorded outcome of this test for O=[N+]([O-])c1cccc(/C=N/NC(=S)NC23CC4CC(CC(C4)C2)C3)c1 .
Response: inactive

====

System: PC-3 prostate
Experiment: NCI-60 one-dose screen, 48 h (100 = growth as untreated, 0 = no growth, -100 = all killed)
Settings: 10 µM
This is part of a sample that, as a whole, favours compounds with a hit. Of some 83,000 tested, about 20% had one in any assay. Calls of active or inactive are those of the source. How the source made its calls: active means growth percent below 10; inactive means the rest.
endpointName: growth

Consider the reported growth for these compounds:
Cc1c(Cl)cccc1NC(=O)CN1CCOCC1
102% (inactive)
CC(C)(C)OC(=O)N1CCc2c(sc3ncnc(N/N=C/c4ccc(Br)cc4)c23)C1
44% (inactive)
COc1cc(/C=C2\CCCC3=C2NC(N)=NC3c2cc(OC)c(OC)c(OC)c2)cc(OC)c1OC (stereo unspecified)
25.9% (inactive)
CCOc1ccccc1/C=N\N=C\c1ccccc1O
95.8% (inactive)
Cc1ccc(N=Nc2ccccc2)cc1
78.1% (inactive)
CS(=O)(=O)c1nccc(-c2c(-c3cccc(OCCN4CCOCC4)c3)nc3sccn23)n1
77.9% (inactive)
CCCCN(CCCC)C(=O)[C@H](CC)[C@@H]1CC[C@@H](C)[C@@H]([C@H](C)[C@@H](O)[C@@H](C)C(=O)[C@H](CC)C2O[C@]3(C=CC(=O)[C@]4(CC[C@@](C)([C@H]5CC[C@](O)(CC)[C@H](C)O5)O4)O3)[C@H](C)C[C@@H]2C)O1 (stereo partly specified)
12.5% (inactive)
COc1ccc(/C(=N\N)C(=O)c2ccccc2)cc1 (tested in a mixture with another compound)
90.8% (inactive)
CC(=O)COc1ccc(Cl)cc1Cl
102% (inactive)
CCN1CC(CCN2CCOCC2)C(C(c2ccccc2)c2ccccc2)C1=O (stereo unspecified)
82.7% (inactive)

Just so you know, measured growth for Nc1ccn(Cc2nnc(CCC(=O)c3nc4ccccc4[nH]3)o2)c(=O)n1 came out at 77% (inactive)

Just so you know, measured growth for O=C(N/N=C/c1cc([N+](=O)[O-])ccc1O)c1cccc2ccccc12 came out at 41.4% (inactive)

====

System: PC-3 prostate
Experiment: NCI-60 one-dose screen, 48 h (100 = growth as untreated, 0 = no growth, -100 = all killed)
Details: 10 µM
Compounds without any hit were thinned out: in the full panel of roughly 83,000, 20% have a hit.
// label = class 1 if growth is not less than 40%, otherwise class 0

Reference set, count: 4
CN1CCN(C2=Nc3ccccc3Oc3ccc(Cl)cc32)CC1
class 1
O=C(CCCCC(=O)Oc1c(Cl)cc(Cl)cc1[N+](=O)[O-])Oc1c(Cl)cc(Cl)cc1[N+](=O)[O-]
class 1
COc1ccc(-c2n[nH]nc2-c2cc(OC)c3c(c2OC)OCO3)cc1
class 0
COc1ccc(Cc2cnc(N)nc2N)cc1OC
class 1

Query: Identify whether the reported growth of the following compound is 40% or greater: COc1ccc(-c2cc(-c3ccc(Cl)cc3)nc(SCCCC(=O)NO)n2)cc1OC
Response: class 0

Query: Identify whether the reported growth of the following compound is 40% or greater: CN(C)CCN(Cc1ccccc1)c1ccc2ccccc2n1
Response: class 1

====

Tested on: OVCAR-5 ovarian
Assay: NCI-60 one-dose screen, 48 h
Settings: 10 µM
About 83,000 compounds went through this panel and 20% of them were active in at least one assay; those are over-represented in the sample as a whole. Active and inactive are the calls of the source. How the source made its calls: active means growth percent below 10; inactive means the rest.
Thanks in advance; please answer with one of these: active, inactive

Reference set, count: 4
CN1CCN(CC(=O)Nc2cccc(-n3cc(-c4ccncc4)c(-c4ccc(Cl)c(O)c4)n3)c2)CC1
inactive
CC(C)N(CCOc1ccc(-c2nc3sccn3c2-c2ccnc(S(C)(=O)=O)n2)cc1)C(C)C
inactive
CC(=O)N[C@H](C(=O)N[C@@H](CCCNC(=N)N)C(=O)N[C@@H](CCCCN)C(=O)N[C@@H](CCCNC(=N)N)C(=O)N[C@]1(C)CCC/C=C\CCC[C@@](C)(C(=O)N[C@@H](CC(C)C)C(=O)N[C@@H](CC(C)C)C(=O)N[C@@H](CCC(N)=O)C(=O)N[C@@H](CCC(=O)O)C(=O)N[C@@H](CCCNC(=N)N)C(=O)N[C@@H](CCC(=O)O)C(=O)N[C@@H](CC(C)C)C(=O)N[C@H](C(=O)N[C@@H](CCC(=O)O)C(N)=O)C(C)C)NC(=O)[C@H](CCCNC(=N)N)NC(=O)[C@H](CC(C)C)NC1=O)C(C)C
inactive
COc1ccc(/C=C2\CCCC3=C2N=C2SC(C)=CN2C3c2ccc(OC)cc2)cc1 (stereo not given)
inactive

Consider now this further molecule.
Query: Tell me the recorded outcome of this test for CNS(=O)(=O)Oc1ccc(-c2sc3cc(OS(=O)(=O)NC)ccc3c2C(=O)c2ccc(OCCN3CCCCC3)cc2)cc1 .
Response: inactive

====

Test system: NCI-H460 lung
Assay: NCI-60 one-dose screen, 48 h (100 = growth as untreated, 0 = no growth, -100 = all killed)
Details: 10 µM
Compounds without any hit were thinned out: in the full panel of roughly 83,000, 20% have a hit.
endpointName: growth (%)
Quick note: give the figure in %, leave out the unit.

Just so you know, measured growth for COc1ccc(/C=C2\CCCC3=C2NC(N)=NC3c2ccc(OC)cc2)cc1 (stereo unspecified) came out at 99.2

====

# growth annotations
System: HOP-92 NSCLC
Test: NCI-60 one-dose screen, 48 h (100 = growth as untreated, 0 = no growth, -100 = all killed)
Details: 10 µM
The panel holds about 83,000 compounds, 20% with a hit somewhere; the sample as a whole holds those more often. Calls of active or inactive are those of the source. How the source made its calls: active means growth percent below 10; inactive means the rest.

Nc1c(Br)cc(Br)c2c1[nH]c(=O)c1ccccc12
82.8% (inactive)
O=C1Cc2cc(CCN3CCN(c4nsc5ccccc45)CC3)c(Cl)cc2N1
64.9% (inactive)
C=CCn1c(SCC(=O)Nc2ccc(C(=O)/C=C/c3cc(OC)c(OC)c(OC)c3)cc2)nnc1-c1cc(-c2ccc(Cl)cc2)nc2ccccc12
83% (inactive)
CCCN1CN2C(=O)N3CN(CCC)CN4C(=S)N(C1)C2C34 (stereo not given)
101% (inactive)

Just so you know, measured growth for COC(=O)c1c[nH]c2cc(OC(C)C)c(OC(C)C)cc2c1=O came out at 80.5% (inactive)

Each recorded value in this set is attributed to PubChem BioAssay (NCI).
